Target: IRAK3-ePL (Homo sapiens)
Construct: expressed in transfected cells; host or cells: 293T CRBN OE/GSPT1 G575N KI cells, lentiviral transduction, puromycin selected
Experiment: IRAK3-ePL overexpressing degradation assay (InCELL Hunter luminescence, dose response)
Format: cell-based
Conditions: lowest percentage of target protein remaining following compound treatment
Measured Parameter: IRAK3 ePL degradation Ymin (%)
# unit: % | format: bare number

Illustrative cases are given below, each with its answer.
Compound	Output Unit	Test Result
Cc1cccc(-c2cnc(Nc3cnn(C4CCN(CCN5CCN(c6ccc7c(c6)C(=O)N(C6CCC(=O)NC6=O)C7=O)CC5)CC4)c3)c3nccn23)c1 (stereo not drawn) [Compound 2]	%	15
Cc1cccc(-c2cnc(Nc3cnn(C4CCN(CCN5CCN(c6ccc(C7CCC(=O)NC7=O)cc6)CC5)CC4)c3)c3nccn23)c1 (stereo not drawn) [Compound 5]	%	14
Cc1cc(-c2cnc(Nc3cnn(C4CCN(CCN5CCN(c6ccc(C7CCC(=O)NC7=O)cc6)CC5)CC4)c3)c3nccn23)ccc1F (stereo not drawn) [Compound 33]	%	24
CN1CCOc2ccc(-c3cnc(Nc4cnn(C5CCN(CCN6CCN(c7ccc(C8CCC(=O)NC8=O)cc7)CC6)CC5)c4)c4nccn34)cc21 (stereo not drawn) [Compound 48]	%	24
Cc1cc(-c2cnc(N[C@H]3CCN(C4CCN(CCN5CCN(c6ccc(C7CCC(=O)NC7=O)cc6)CC5)CC4)C3)c3nccn23)c(F)cc1F (stereo partly drawn) [Compound 65]	%	86

Turning now to a further compound:
State, in one line, measured IRAK3 ePL degradation Ymin of Cc1cc(-c2cnc(Nc3cnn([C@@H]4CCN(CCN5CCN(c6ccc(C7CCC(=O)NC7=O)cc6)C[C@@H]5C)[C@H](C)C4)c3)c3nccn23)c(F)cc1F (stereo partly drawn) [Compound 59] 21

meta.source: patent US20260216347A1
